Value source: ChEMBL document CHEMBL1153407

- TARGET: DNA topoisomerase 1 (Homo sapiens) (UniProt P11387)
- Sequence (P11387 whole entry): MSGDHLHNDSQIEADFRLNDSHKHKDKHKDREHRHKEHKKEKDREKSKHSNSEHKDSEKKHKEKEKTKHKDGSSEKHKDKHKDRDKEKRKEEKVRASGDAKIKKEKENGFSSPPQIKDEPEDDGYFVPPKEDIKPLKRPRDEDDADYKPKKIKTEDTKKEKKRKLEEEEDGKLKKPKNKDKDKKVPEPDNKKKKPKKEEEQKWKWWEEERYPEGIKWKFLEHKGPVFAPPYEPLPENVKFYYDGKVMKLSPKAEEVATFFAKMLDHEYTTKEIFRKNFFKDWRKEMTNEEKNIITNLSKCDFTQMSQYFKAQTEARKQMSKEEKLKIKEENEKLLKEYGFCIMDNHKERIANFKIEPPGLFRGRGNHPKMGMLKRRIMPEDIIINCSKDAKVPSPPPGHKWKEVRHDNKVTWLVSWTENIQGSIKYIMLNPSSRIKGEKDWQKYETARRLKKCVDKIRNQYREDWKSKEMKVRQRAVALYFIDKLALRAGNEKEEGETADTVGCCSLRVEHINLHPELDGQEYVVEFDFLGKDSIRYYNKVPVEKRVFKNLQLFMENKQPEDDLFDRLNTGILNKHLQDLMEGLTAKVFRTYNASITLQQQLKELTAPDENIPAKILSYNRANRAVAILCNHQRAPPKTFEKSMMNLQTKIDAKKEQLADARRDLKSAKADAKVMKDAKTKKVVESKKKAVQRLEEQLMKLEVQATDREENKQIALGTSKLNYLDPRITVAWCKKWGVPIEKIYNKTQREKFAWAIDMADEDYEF
- PROTOCOL DESCRIPTION: Inhibition of human topoisomerase 1 expressed in sf9 cells assessed as drug level causing 10% mediated DNA cleavage relative to topotecan
Each item that follows carries a reported Activity.
READOUT NAME: Activity

MOLECULE	TARGET	RECORDED VALUE
COc1cc2c(C(N)=O)cc3c4cc5c(cc4ncc3c2cc1OC)OCO5	DNA topoisomerase 1 (Homo sapiens) (UniProt P11387)	0.8
COc1cc2c3cnc4cc5c(cc4c3c(=O)n(CCN(C)C)c2cc1OC)OCO5	DNA topoisomerase 1 (Homo sapiens) (UniProt P11387)	0.6
CNC(=O)c1cc2c3cc4c(cc3ncc2c2cc(OC)c(OC)cc12)OCO4	DNA topoisomerase 1 (Homo sapiens) (UniProt P11387)	1.2
COc1cc2c(CCN)cc3c4cc5c(cc4ncc3c2cc1OC)OCO5	DNA topoisomerase 1 (Homo sapiens) (UniProt P11387)	0.3
CC[C@@]1(O)C(=O)OCc2c1cc1n(c2=O)Cc2cc3ccccc3nc2-1 [CAMPTOTHECIN]	DNA topoisomerase 1 (Homo sapiens) (UniProt P11387)	0.2
COc1cc2c(CNCCN(C)C)cc3c4cc5c(cc4ncc3c2cc1OC)OCO5	DNA topoisomerase 1 (Homo sapiens) (UniProt P11387)	1.9
COc1cc2c(CCCN(C)C)cc3c4cc5c(cc4ncc3c2cc1OC)OCO5	DNA topoisomerase 1 (Homo sapiens) (UniProt P11387)	10
COc1cc2c(/C=C/[N+](=O)[O-])cc3c4cc5c(cc4ncc3c2cc1OC)OCO5	DNA topoisomerase 1 (Homo sapiens) (UniProt P11387)	9.2
COc1cc2c(C(=O)N(C)C)cc3c4cc5c(cc4ncc3c2cc1OC)OCO5	DNA topoisomerase 1 (Homo sapiens) (UniProt P11387)	1.1
COc1cc2c(CO)cc3c4cc5c(cc4ncc3c2cc1OC)OCO5	DNA topoisomerase 1 (Homo sapiens) (UniProt P11387)	0.25
COc1cc2c(CN(C)C)cc3c4cc5c(cc4ncc3c2cc1OC)OCO5	DNA topoisomerase 1 (Homo sapiens) (UniProt P11387)	1.1
COc1cc2c(/C=C/CN(C)C)cc3c4cc5c(cc4ncc3c2cc1OC)OCO5	DNA topoisomerase 1 (Homo sapiens) (UniProt P11387)	7.7
COc1cc2c(CCN(C)C)cc3c4cc5c(cc4ncc3c2cc1OC)OCO5	DNA topoisomerase 1 (Homo sapiens) (UniProt P11387)	0.5
COc1cc2c(C(=O)NCCN(C)C)cc3c4cc5c(cc4ncc3c2cc1OC)OCO5	DNA topoisomerase 1 (Homo sapiens) (UniProt P11387)	0.1
COc1cc2c(CC[N+](=O)[O-])cc3c4cc5c(cc4ncc3c2cc1OC)OCO5	DNA topoisomerase 1 (Homo sapiens) (UniProt P11387)	7.7
COc1cc2c(=O)n(CCN(C)C)c3c4cc5c(cc4ncc3c2cc1OC)OCO5	DNA topoisomerase 1 (Homo sapiens) (UniProt P11387)	0.3
COc1cc2c(C(O)CCCN(C)C)cc3c4cc5c(cc4ncc3c2cc1OC)OCO5 (stereo not given)	DNA topoisomerase 1 (Homo sapiens) (UniProt P11387)	9.2
COc1cc2c(CCCCN(C)C)cc3c4cc5c(cc4ncc3c2cc1OC)OCO5	DNA topoisomerase 1 (Homo sapiens) (UniProt P11387)	0.2
COc1cc2c(C=O)cc3c4cc5c(cc4ncc3c2cc1OC)OCO5	DNA topoisomerase 1 (Homo sapiens) (UniProt P11387)	4.7
COc1cc2c(/C=C/CCN(C)C)cc3c4cc5c(cc4ncc3c2cc1OC)OCO5	DNA topoisomerase 1 (Homo sapiens) (UniProt P11387)	15
